Here the recorded cell viability is given for each entry.
Test system: HepG2
assay.name: cell viability relative to DMSO; higher = less toxic
settings: 72 h; 10 nM
I only need the number, in %, no unit after it.

compound=C/C(=C\CNc1ncnc2[nH]cnc12)CO measured_result=92.9
compound="NC[C@H]1O[C@H](O[C@H]2[C@H](O[C@@H]3O[C@H](CO)[C@@H](O)[C@H]3O)[C@@H](O)[C@H](N)C[C@@H]2N)[C@H](N)[C@@H](O)[C@@H]1O [ribostamycin-sulfate]" measured_result=107
compound=CC1(C)S[C@@H]2[C@H](NC(=O)[C@H](NC(=O)N3CCNC3=O)c3ccccc3)C(=O)N2[C@H]1C(=O)O measured_result=88.5

The record that follows has no cell viability shown yet.
I am curious: what cell viability value has been reported for `Nc1nc(NCCc2ccc(O)cc2)nc2nc(-c3ccco3)nn12` ?
98.6

* * *

System: HepG2
assay.name: drug sensitivity score (DSS) for viability; higher = more toxic; extreme values may be limits of the assay
settings: 72 h
Here the recorded drug sensitivity score is given for each entry.
// return a plain number; no unit text

molecule="O=C(c1ccc(Cl)o1)N1CC2CNCC2C1 (stereo not given)" quantity_kind="drug sensitivity score" measured_result=0

Hello, I am looking for reported drug sensitivity score with HepG2 for `CC/C(=C(\c1ccccc1)c1ccc(OCCN(C)C)cc1)c1ccccc1` . Could you help?
0.9

Hello, I am looking for reported drug sensitivity score with HepG2 for `CN1CCC(=C2c3ccccc3Sc3ccccc32)CC1` . Could you help?
1.2

Hello, I am looking for reported drug sensitivity score with HepG2 for `CCN(CC)CCNC(=O)c1ccc(I)cc1` . Could you help?
0

Hello, I am looking for reported drug sensitivity score with HepG2 for `Cc1cc(Nc2ncc(Cl)c(Nc3ccccc3S(=O)(=O)C(C)C)n2)c(OC(C)C)cc1C1CCNCC1` . Could you help?
9.7

* * *

Here the recorded drug sensitivity score is given for each entry.
System: Caco-2
assay.name: drug sensitivity score (DSS) for viability; higher = more toxic; extreme values may be limits of the assay
settings: 72 h
// return a plain number; no unit text

The cases that follow already have their drug sensitivity score on record.
compound="O=C(/C=C/c1cccc(F)c1)NC1CC1 [cinflumide]" target_under_test=Caco-2 measured_result=0
compound="C=CC(C)(O)CCC=C(C)C (stereo not drawn)" target_under_test=Caco-2 measured_result=0

Hello, I am looking for reported drug sensitivity score with Caco-2 for `Oc1cc(O)c2c(c1)O[C@H](c1ccc(O)c(O)c1)[C@H](O)[C@H]2c1c(O)cc(O)c2c1O[C@H](c1ccc(O)c(O)c1)[C@H](O)C2` . Could you help?
0

Hello, I am looking for reported drug sensitivity score with Caco-2 for `CN(C)CCCCC(=O)Nc1ccc(NC(=S)NC(=O)c2ccc(C(C)(C)C)cc2)cc1` . Could you help?
5.7

* * *

Tested on: Calu-3
assay.name: cell viability relative to DMSO; higher = less toxic
settings: 72 h; 1000 nM
Here the recorded cell viability is given for each entry.
I only need the number, in %, no unit after it.

compound="COc1cc2c(cc1OC)-c1cc3ccc(OC)c(OC)c3c[n+]1CC2 [palmatine-chloride]" target_under_test=Calu-3 quantity_kind="cell viability" measured_result=90.1

I am curious: what cell viability value has been reported for O=C(NCc1ccccn1)Nc1nnc(-c2ccco2)o1 [NK-252] ?
103

I am curious: what cell viability value has been reported for c1ccc(COCCCc2c[nH]cn2)cc1 [proxyfan] ?
103

I am curious: what cell viability value has been reported for Nc1ncnc2c1ncn2[C@@H]1O[C@H](C[C@@H](N)CC[C@H](N)C(=O)O)[C@@H](O)[C@H]1O [sinefungin] ?
94.8

* * *

System: Calu-3
assay.name: relative viability EC50 (midpoint between 100% and the lowest measured viability); higher = less toxic
settings: 72 h
quantity.kind: relative viability EC50

compound="CC1(CN2CCC(n3c(=O)[nH]c4ccccc43)CC2)OCc2ccccc2-n2cccc21 (stereo not drawn) [zaldaride]" measured_result="> 10 µM"
compound=Nc1nc(NCCNc2ncc(-n3ccnc3)c(-c3ccc(Cl)cc3Cl)n2)ccc1[N+](=O)[O-] measured_result="> 10 µM"
compound=CC(C)(C)NS(=O)(=O)c1cncc(-c2cc(F)c3nc(N)nn3c2)c1 measured_result="> 10 µM"
compound="COCCOc1cnc2ccn([C@H](C)c3nnc4c(F)cc(-c5cnn(C)c5)cn34)c(=O)c2c1 [AMG-337]" measured_result="> 10 µM"
compound="[Cl][Ru-]([Cl])([Cl])[Cl].[Na+].c1ccc2[nH]ncc2c1.c1ccc2[nH]ncc2c1 [NKP-1339]" measured_result="> 10 µM"

I am curious: what relative viability EC50 value has been reported for Cc1nc(C#Cc2ccnc(Cl)c2)c(C)n1-c1ccc(OC(F)(F)F)cc1 [CTEP] ?
> 10 µM

* * *

Tested on: Calu-3
assay.name: cell viability relative to DMSO; higher = less toxic
settings: 72 h; 10 nM
Here the recorded cell viability is given for each entry.
I only need the number, in %, no unit after it.

The cases that follow already have their cell viability on record.
compound="N=C(N)NN=C1C=CC(=NNC(N)=S)C=C1 [ambazone]" measured_result=95.8
compound="O=C(O)c1ccc2[nH]cc(CCCCN3CC=C(c4ccccc4)CC3)c2c1 [carmoxirole]" measured_result=112
compound=Nc1nc(=O)c2sc(=O)n([C@@H]3O[C@H](CO)[C@@H](O)[C@H]3O)c2[nH]1 measured_result=110

The record that follows has no cell viability shown yet.
I am curious: what cell viability value has been reported for `Cn1ccc2cc(NC(=O)Nc3cccnc3)ccc21` ?
97.6

* * *

Tested on: Caco-2
assay.name: cell viability relative to DMSO; higher = less toxic
settings: 72 h; 1000 nM
Here the recorded cell viability is given for each entry.
I only need the number, in %, no unit after it.

The cases that follow already have their cell viability on record.
compound="Cc1[nH]cnc1-c1ccc(Cl)cc1 [lofemizole]" quantity_kind="cell viability" value_units=% measured_result=98.7
compound=CCN(CC)CCCCNc1ncc2cc(-c3cc(OC)cc(OC)c3)c(NC(=O)NC(C)(C)C)nc2n1 quantity_kind="cell viability" value_units=% measured_result=103
compound="CCN(CC)CCNC(=O)c1ccccc1I [I-BZA2]" quantity_kind="cell viability" value_units=% measured_result=100
compound="CC(C)(COP(=O)(O)OP(=O)(O)OC[C@H]1O[C@@H](n2cnc3c(N)ncnc32)[C@H](O)[C@@H]1OP(=O)(O)O)[C@@H](O)C(=O)NCCC(=O)NCCS [coenzyme-A]" quantity_kind="cell viability" value_units=% measured_result=97.8
compound=Cc1cnc(NC(=O)Nc2cc(Br)c(C)cc2OC[C@@H]2CNCCO2)cn1 quantity_kind="cell viability" value_units=% measured_result=87.5

I am curious: what cell viability value has been reported for CC(C)C[C@H](NC(=O)[C@@H]1CCCN1)C(=O)NCC(N)=O [prolylleucylglycinamide] ?
96

I am curious: what cell viability value has been reported for Cn1c(=O)c(F)c(Nc2ccc(I)cc2F)c2c(=O)n(C[C@@H](O)CO)cnc21 [TAK-733] ?
66.4

I am curious: what cell viability value has been reported for c1ccc(COCCCc2c[nH]cn2)cc1 [proxyfan] ?
91.6

I am curious: what cell viability value has been reported for N#Cc1cc2nc(O)c(O)nc2cc1[N+](=O)[O-] [CNQX] ?
97.5

I am curious: what cell viability value has been reported for `Nc1nc(=O)c2sc(=O)n([C@@H]3O[C@H](CO)[C@@H](O)[C@H]3O)c2[nH]1` ?
99.6

I am curious: what cell viability value has been reported for COc1cc(C=O)ccc1O [vanillin] ?
104

* * *

Tested on: Caco-2
assay.name: cell viability relative to DMSO; higher = less toxic
settings: 72 h; 1 nM
quantity.kind: cell viability (%)
I only need the number, in %, no unit after it.

The cases that follow already have their cell viability on record.
compound=Cc1c(F)cc(C(=O)NC2CC2)cc1-c1ccc(C(=O)NCC(C)(C)C)cn1 measured_result=97
compound="CC(=O)NC1CCSC1=O (stereo not given)" measured_result=98.8

I am curious: what cell viability value has been reported for O=C1CN2Cc3c(ccc(Cl)c3Cl)N=C2N1 [anagrelide] ?
101

I am curious: what cell viability value has been reported for `CC(C)(C)NS(=O)(=O)c1cncc(-c2cc(F)c3nc(N)nn3c2)c1` ?
95.6

I am curious: what cell viability value has been reported for `Cc1nn(C)c2c1C(c1cccc(Cl)c1)=NCCN2` ?
95.7

* * *

Tested on: Caco-2
assay.name: cell viability relative to DMSO; higher = less toxic
settings: 72 h; 10000 nM
Here the recorded cell viability is given for each entry.
I only need the number, in %, no unit after it.

compound="O=C(/C=C/c1cccc(F)c1)NC1CC1 [cinflumide]" measured_result=98.1

The record that follows has no cell viability shown yet.
I am curious: what cell viability value has been reported for `CC(C)(C)NS(=O)(=O)c1cncc(-c2cc(F)c3nc(N)nn3c2)c1` ?
107
